src = ChEMBL document CHEMBL3091338

# Test system: MDA-MB-231
# test description: Cytotoxicity against human MDA-MB-231 cells after 72 hrs by Alamar Blue assay
# Format: functional, cell-based
# experimental parameters: mda-mb-231
measurement name: IC50 (nM)
Write it as a number; the unit nM goes unstated.

Item under review: `COc1cc2c(c3oc4cccc(O)c4c(=O)c13)[C@@H]1C=CO[C@@H]1O2` . Reported IC50?
2750

----------
# System: SF-268
# test description: Cytotoxicity against human SF268 cells after 72 hrs by Alamar Blue assay
# Format: functional, cell-based
# experimental parameters: Homo sapiens, SF-268, 72 h
In this section, each of the compounds is paired with its reported pIC50.
Scale note: pIC50 = -log10(concentration in M).

• COc1ccc(C(=O)O[C@H]2C=COC=C3C[C@]45SSSS[C@](Cc6ccc(O)cc6)(C(=O)N4[C@@H]32)N(C)C5=O)cc1O = 7.22

Let us examine a further case.
Item under review: `COc1cccc2c1C(=O)c1c(O)c3c(c(O)c1C2=O)C[C@@](O)(C(=O)CO)C[C@@H]3O[C@H]1C[C@H](N)[C@H](O)[C@H](C)O1` . Reported pIC50?
6.51

----------
# Test system: NCI-H460
# test description: Cytotoxicity against human NCI-H460 cells up to 5 uM after 72 hrs by Alamar Blue assay
# Type: functional, cell-based
The source made the active and inactive calls. The rule behind the calls is not given here.
measurement name: Activity

• C=C(C)[C@H]1COc2c(C)cc3oc4ccc(CC=C(C)C)c(O)c4c(=O)c3c2[C@H]1O (relative stereo) = inactive
• CC(C)=CCC[C@@]1(C(=O)O)[C@H]2C/C=C(\C)CC/C=C(\C)CC[C@H]1[C@@]1(CC2)CO1 = inactive
• CC(C)=CCC[C@@]1(C=O)[C@H]2C/C=C(\C)CC/C=C(\C)CC[C@H]1[C@@]1(CC2)CO1 = inactive

----------
# System: MCF7
# test description: Cytotoxicity against human MCF7 cells after 72 hrs by Alamar Blue assay
# Type: functional, cell-based
# experimental parameters: mcf7
measurement name: IC50
Note to self: number, then unit, no commentary.

Item under review: `COc1cc2c(c3oc4cccc(O)c4c(=O)c13)[C@@H]1C=CO[C@@H]1O2` . Reported IC50?
3.63 µM
